assay: Chemical stability of the compound assessed as half life in 0.6% borate buffer at pH 7; type: physicochemical
Reported half-life values for a set of compounds
Just the number please, in days, no unit attached.

See these solved cases before continuing.
>  <Molecule>
CC(C)(CCS(=O)(=O)CCC[N+](C)(C)C)N(Cl)Cl.[Cl-]

>  <Display Unit>
days

>  <Test Result>
70

$$$$
>  <Molecule>
CC(C)(CCS(=O)(=O)CCS(=O)(=O)CCS(=O)(=O)O)N(Cl)Cl

>  <Display Unit>
days

>  <Test Result>
14

$$$$
>  <Molecule>
CC(C)(CCS(=O)(=O)CCCCCCCCS(=O)(=O)O)N(Cl)Cl

>  <Display Unit>
days

>  <Test Result>
70

$$$$

Shifting focus to the compound that follows.
For record CC(C)(CCCS(=O)(=O)CCS(=O)(=O)O)N(Cl)Cl the listed half-life is 45

====

test: Chemical stability of the compound assessed as half life in acetate buffer at pH 4; format: physicochemical
Reported half-life values for a set of compounds

>  <Molecule>
CC(C)(CCC[N+](C)(C)C)N(Cl)Cl.[Cl-]

>  <Reported Endpoint>
half-life

>  <Test Result>
80 days

$$$$

For record CC(C)(CS(=O)(=O)[O-])N(Cl)Cl.[Na+] the listed half-life is > 730 days

For record CC(C)(CS(=O)(=O)CCS(=O)(=O)O)N(Cl)Cl the listed half-life is > 93 days

For record CC(C)(CCCS(=O)(=O)CCS(=O)(=O)O)N(Cl)Cl the listed half-life is 45 days

For record CC(C)(CCS(=O)(=O)CCCS(=O)(=O)O)N(Cl)Cl the listed half-life is > 112 days

For record CC(C)(CCS(=O)(=O)CC[N+](C)(C)C)N(Cl)Cl.[Cl-] the listed half-life is 6 days

For record CC(C)(CCS(=O)(=O)CCCCCCCC[N+](C)(C)C)N(Cl)Cl.[Cl-] the listed half-life is 127 days

For record CC(C)(CCS(=O)(=O)CCS(=O)(=O)CCS(=O)(=O)O)N(Cl)Cl the listed half-life is > 73 days

For record CC(C)(CCS(=O)(=O)CCC[N+](C)(C)C)N(Cl)Cl.[Cl-] the listed half-life is > 160 days

====

assay: Chemical stability of the compound assessed as half life in phosphate buffer at pH 7; assay type: physicochemical
Reported half-life values for a set of molecules
Just the number please, in days, no unit attached.

See these solved cases before continuing.
>  <Molecule>
CC(C)(CCS(=O)(=O)CCCCCCCC[N+](C)(C)C)N(Cl)Cl.[Cl-]

>  <Display Unit>
days

>  <Test Result>
74

$$$$
>  <Molecule>
CC(C)(CCC[N+](C)(C)C)N(Cl)Cl.[Cl-]

>  <Display Unit>
days

>  <Test Result>
56

$$$$
>  <Molecule>
CC(C)(CS(=O)(=O)CCS(=O)(=O)O)N(Cl)Cl

>  <Display Unit>
days

>  <Test Result>
1

$$$$

For record CC(C)(CCS(=O)(=O)CCCS(=O)(=O)O)N(Cl)Cl the listed half-life is 85

====

experiment: Chemical stability of the compound assessed as half life in acetate buffer at pH 4; type: physicochemical
Reported half-life values for a set of compounds

For record CC(C)(C[N+](C)(C)C)N(Cl)Cl.[Cl-] the listed half-life is > 325 days

For record CC(C)(CC[N+](C)(C)C)N(Cl)Cl.[Cl-] the listed half-life is > 281 days

For record CC(C)(CCS(=O)(=O)CCCCCCCCS(=O)(=O)O)N(Cl)Cl the listed half-life is 182 days

For record CC(C)(CCS(=O)(=O)CCS(=O)(=O)O)N(Cl)Cl the listed half-life is > 342 days

====

experiment: Chemical stability of the compound assessed as half life in phosphate buffer at pH 7; format: physicochemical
Reported Endpoint: half-life

See these solved cases before continuing.
>  <Molecule>
CC(C)(CCS(=O)(=O)CCS(=O)(=O)O)N(Cl)Cl

>  <Reported Endpoint>
half-life

>  <Test Result>
> 342 days

$$$$
>  <Molecule>
CC(C)(CC[N+](C)(C)C)N(Cl)Cl.[Cl-]

>  <Reported Endpoint>
half-life

>  <Test Result>
> 210 days

$$$$
>  <Molecule>
CC(C)(CS(=O)(=O)[O-])N(Cl)Cl.[Na+]

>  <Reported Endpoint>
half-life

>  <Test Result>
> 300 days

$$$$

For record CC(C)(C[N+](C)(C)C)N(Cl)Cl.[Cl-] the listed half-life is > 396 days

Origin of values: ChEMBL document CHEMBL1777687
